system: SF-268 CNS; assay: NCI-60 one-dose screen, 48 h (100 = growth as untreated, 0 = no growth, -100 = all killed); conditions: 10 µM
The panel holds about 83,000 compounds, 20% with a hit somewhere; the sample as a whole holds those more often.
Answer each item with its documented growth.
Entry rule: numbers only, all in %.

Looking for the measured growth of `COc1cc(NC(=O)c2cc(-c3ccc(F)cc3F)ccc2O)cc(OC)c1OC` , can you help?
25.9

So what's the measured growth for this one? `N#Cc1ccc(-c2nn(-c3ccc(C(=O)O)cc3)cc2CNc2cc(Cl)cc(Cl)c2)cc1`
53.3

What value of growth has been recorded for this entry: `CNC(=O)c1cccc(N2CCc3c2ccc(NC(=O)Nc2ccc(N4CCN(C)CC4)c(C(F)(F)F)c2)c3F)c1`
-62.7

Which growth is listed for `O=C(CSc1nnc(-c2c[nH]c3ccccc23)n1-c1ccccc1)c1ccc(Cl)cc1` ?
69.4

I'd like to know its growth. The compound in question is `COc1ccc(NC(=O)Nc2ccc(OCC(=O)N=Nc3c(O)[nH]c4ccc([N+](=O)[O-])cc34)cc2)cc1`
63.7

What value of growth has been reported for the following compound? `CC(C)C1=C[C@@]23CC[C@@H]4[C@](C)(CCC[C@]4(C)C(=O)NCc4ccccc4)[C@H]2C[C@@H]1[C@H]1C(=O)OC(=O)[C@H]13`
46.6

Quick check: growth of `COc1ccc2nc(Nc3cccc(NC(=O)c4ccc(CN5CCN(C)CC5)c(C(F)(F)F)c4)c3)ccc2c1` ?
-55.2

Recorded growth of `Cc1ccc(C(C)C)cc1NC(=O)c1ccccc1N(C)C` , please.
95.8
